molecular target: Aromatase (Homo sapiens)
Sequence (P11511 whole entry): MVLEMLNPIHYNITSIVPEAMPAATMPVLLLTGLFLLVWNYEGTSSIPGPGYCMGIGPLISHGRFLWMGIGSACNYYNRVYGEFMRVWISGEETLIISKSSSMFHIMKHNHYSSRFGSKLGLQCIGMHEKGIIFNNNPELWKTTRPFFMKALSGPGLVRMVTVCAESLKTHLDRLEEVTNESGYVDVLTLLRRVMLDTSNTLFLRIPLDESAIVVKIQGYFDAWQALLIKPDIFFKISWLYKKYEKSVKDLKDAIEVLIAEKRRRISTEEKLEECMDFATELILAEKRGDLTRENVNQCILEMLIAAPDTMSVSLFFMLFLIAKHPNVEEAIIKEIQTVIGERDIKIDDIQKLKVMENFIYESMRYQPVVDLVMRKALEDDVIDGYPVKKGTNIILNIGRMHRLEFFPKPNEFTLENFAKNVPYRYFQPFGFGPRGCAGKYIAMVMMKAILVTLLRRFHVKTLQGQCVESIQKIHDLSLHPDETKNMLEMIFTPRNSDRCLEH
pIC50: −log10 of the molar value.
Could you please classify the records by pIC50 using these ranges: low-valued: < 5; mid-valued: ≥ 5 and < 6; high-valued: ≥ 6

Below are worked cases with known answers.
molecule=CC1(C)C[C@@]2(C)C(=CC1=O)C(=O)C[C@@H]1[C@@H]2CC[C@]2(C)C(=O)CC[C@@H]12 answer_label=high-valued
molecule=C[C@]12CCC[C@H](O)C1=CC(=O)[C@@H]1[C@@H]2CC[C@]2(C)C(=O)CC[C@@H]12 answer_label=mid-valued
molecule="CC(=O)OC[C@]12CCCC=C1CC[C@@H]1[C@@H]2CC[C@]2(C)C(OC(C)=O)CC[C@@H]12 (some centres not stated)" answer_label=low-valued
molecule=C[C@]12C=CC(=O)C=C1C(CCc1ccccc1)=C[C@@H]1[C@@H]2CC[C@]2(C)C(=O)CC[C@@H]12 answer_label=high-valued

Let us examine a further case.
INPUT: Kindly identify the class of C[C@]12CC[C@@H]3c4ccc(O)c(F)c4CC[C@H]3[C@@H]1CC[C@@H]2O .
OUTPUT: low-valued
